Value source: ChEMBL document CHEMBL2163261

Entries annotated with measured CC50
- experiment: Cytotoxicity against human U373-MAGI cells expressing CXCR4
- Assay type: cell-based
- runParameters: read-out: TC50 (the source's name)
Dear colleague, please return just the value in µM, with no unit written.

Name the reported CC50 value associated with the compound `Oc1ccc(-c2c(-c3cc(O)cc(O)c3)sc3ccccc23)cc1`
131

One more compound: `Oc1ccc(-c2sc3ccccc3c2-c2cc(O)cc(O)c2)cc1`
118

One more compound: `Oc1ccc(-c2oc3ccccc3c2-c2cc(O)cc(O)c2)cc1`
108

One more compound: `Oc1ccc(-c2ccc(-c3cc(O)cc(O)c3)cc2)cc1`
179

One more compound: `Oc1ccc(-c2c(-c3cc(O)cc(O)c3)oc3ccccc23)cc1`
84.8

---

- System: Human immunodeficiency virus 1
- experiment: Antiviral activity against HIV1 infected in human U373-MAGI cells expressing CXCR4 assessed as inhibition of viral infection preincubated for 2 hrs prior to infection followed by compound wash out measured after 48 hrs by single round replication assay
- Format: functional, organism-based
- runParameters: Human immunodeficiency virus 1, U373-MAGI
propertyName: EC50

Oc1ccc(/C=C/c2cc(O)cc(O)c2)cc1 :: > 75 µM
Oc1ccc(-c2cnc(-c3cc(O)cc(O)c3)nc2)cc1 :: > 75 µM
Oc1ccc(-c2c(-c3cc(O)cc(O)c3)oc3ccccc23)cc1 :: 35 µM
Oc1cc(O)cc(-c2ccc(-c3ccncc3)cc2)c1 :: > 100 µM
Oc1cc(O)cc(/C=C/c2ccc(O)c(O)c2)c1 :: 21.4 µM

Name the reported EC50 value associated with the molecule `Oc1cc(O)cc(-c2ccc3cnccc3c2)c1`
> 75 µM

One more molecule: `Oc1cc(O)cc(-c2ccc3cc(O)ccc3c2)c1`
> 75 µM

One more molecule: `Oc1ccc(-c2ncc(-c3cc(O)cc(O)c3)cn2)cc1`
> 75 µM

One more molecule: `Cn1c(-c2ccc(O)cc2)ccc1-c1cc(O)cc(O)c1`
> 75 µM

One more molecule: `Oc1ccc(-c2sc3ccccc3c2-c2cc(O)cc(O)c2)cc1`
45.1 µM

One more molecule: `O=C(/C=C/c1ccc(O)cc1)c1cc(O)cc(O)c1`
> 75 µM

One more molecule: `Oc1ccc(-c2cc(-c3cc(O)cc(O)c3)on2)cc1`
> 75 µM

One more molecule: `Oc1ccc(-c2ccc(-c3cc(O)cc(O)c3)cc2)cc1`
8.8 µM

One more molecule: `Oc1ccc(-c2oc3ccccc3c2-c2cc(O)cc(O)c2)cc1`
65.1 µM

One more molecule: `Oc1ccc(-n2cc(-c3cc(O)cc(O)c3)nn2)cc1`
> 75 µM

One more molecule: `Oc1ccc(-c2c(-c3cc(O)cc(O)c3)sc3ccccc23)cc1`
34.4 µM

---

- experiment: Selectivity index, ratio of TC50 for human U373-MAGI cells to EC50 for human U373-MAGI cells infected with HIV1
- Format: toxicity, cell-based
- runParameters: read-out: Selectivity Index
Entries annotated with measured selectivity ratio
Answer with a bare number; do not write a unit.

Worked cases, answers included:
Oc1ccc(-c2c(-c3cc(O)cc(O)c3)oc3ccccc23)cc1 :: 2.4
Oc1ccc(-c2sc3ccccc3c2-c2cc(O)cc(O)c2)cc1 :: 2.6
Oc1ccc(-c2oc3ccccc3c2-c2cc(O)cc(O)c2)cc1 :: 1.5
Oc1ccc(-c2ccc(-c3cc(O)cc(O)c3)cc2)cc1 :: 20.3

The record that follows has no selectivity ratio shown yet.
Name the reported selectivity ratio value associated with the compound `Oc1ccc(-c2c(-c3cc(O)cc(O)c3)sc3ccccc23)cc1`
3.8
